Property: self-splicing fitness (ln); scope: individual sequences
- protocol.notes: self-splicing fitness, log relative to wild type (ln ratio); higher = more splicing; Tetrahymena group I intron in knt gene, E. coli kanamycin selection, DiMSum; sequences stand for … in CUCUCU…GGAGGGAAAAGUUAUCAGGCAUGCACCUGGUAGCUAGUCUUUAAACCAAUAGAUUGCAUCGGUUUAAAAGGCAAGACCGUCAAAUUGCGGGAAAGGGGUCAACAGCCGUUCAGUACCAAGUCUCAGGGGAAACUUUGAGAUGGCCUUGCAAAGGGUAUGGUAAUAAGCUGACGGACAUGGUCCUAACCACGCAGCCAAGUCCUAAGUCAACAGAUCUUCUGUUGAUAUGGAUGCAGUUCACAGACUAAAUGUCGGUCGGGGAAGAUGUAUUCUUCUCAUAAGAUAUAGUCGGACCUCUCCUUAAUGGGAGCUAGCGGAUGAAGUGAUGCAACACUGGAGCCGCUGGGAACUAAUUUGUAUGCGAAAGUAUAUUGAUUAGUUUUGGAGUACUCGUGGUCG;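 note: selection with 25 µg/mL kanamycin versus none on LB agar overnight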
- measurement.conditions: 30 °C
assay.endpoint: self-splicing fitness (ln)

>>> test_result("AGUGAGCAAUAUUACGUGCU")
-1.86
>>> test_result("AUUAAGCAAUAUUACGAUAU")
-1.2
>>> test_result("AUUCAGCAAUAUUACGCGGA")
-1.73
>>> test_result("GAGAAGCAAUAUUACGAGGC")
-3.35
>>> test_result("CACUAGCAAUAUUACGCGGC")
-3.47
>>> test_result("UGCGAGCAAUAUUACGUAGG")
-3.81
>>> test_result("GUGUAGCAAUAUUACGGCGA")
-1.18
>>> test_result("CUGAAGCAAUAUUACGCGGA")
-3.45
>>> test_result("AACAAGCAAUAUUACGACCG")
-0.711
>>> test_result("CCGAAGCAAUAUUACGCUCA")
-3.65
>>> test_result("GAGUAGCAAUAUUACGCAUU")
-3.07
>>> test_result("GUAUAGCAAUAUUACGUUUA")
-2.74
>>> test_result("CCGCAGCAAUAUUACGGUCG")
-0.439
>>> test_result("UAUUAGCAAUAUUACGCAUU")
-2.09
>>> test_result("GUCCAGCAAUAUUACGAGCA")
-0.945
>>> test_result("GCGUAGCAAUAUUACGUCUU")
-3.15
